target: human C5aR(CD88) (Homo sapiens); construct: expressed in transfected cells; host or cells: rat basophilic leukemia cells (RBL); test: Determination of the IC50 value in an enzyme release assay (functional assay, antagonistic activity); type: cell-based; conditions: antagonistic activity; IC50 group in enzyme release assay, RBL cells expressing human C5aR(CD88); read-out: activity (group)
Sequence (P21730 whole entry): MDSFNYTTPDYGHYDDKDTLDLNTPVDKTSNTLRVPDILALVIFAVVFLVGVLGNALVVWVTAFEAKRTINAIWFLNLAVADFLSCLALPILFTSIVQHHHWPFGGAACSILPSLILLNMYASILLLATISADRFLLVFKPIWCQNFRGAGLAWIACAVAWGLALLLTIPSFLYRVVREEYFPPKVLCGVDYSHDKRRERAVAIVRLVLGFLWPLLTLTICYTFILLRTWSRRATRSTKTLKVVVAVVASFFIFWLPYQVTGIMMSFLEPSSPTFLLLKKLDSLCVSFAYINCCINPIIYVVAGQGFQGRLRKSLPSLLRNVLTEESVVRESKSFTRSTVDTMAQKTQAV
pIC50: −log10 of the molar value. Starred links: 1 amine or outer side, 2 acyl side, 3 side chain; linkers in the order of their positions; H or OH if unused. Positions of bridges follow the written chain, without caps; N, C: chain ends. Non-standard residues stand in square brackets, D forms with d. Residues, ends and D or L forms follow the SMILES beside them. X6 = O=C([C@H](C[S+]([O-])Cc1cccnc1)N[*:1])[*:2]; Phe(4-F) = N[C@@H](Cc1ccc(F)cc1)C(=O)O; Phe(4-Me) = Cc1ccc(C[C@H](N)C(=O)O)cc1; Bta = N[C@@H](Cc1csc2ccccc12)C(=O)O; Hyp = O=C(O)[C@@H]1C[C@@H](O)CN1; d(hLeu) = CC(C)CC[C@@H](N)C(=O)O; Tic = O=C(O)[C@@H]1Cc2ccccc2CN1; dCha = N[C@H](CC1CCCCC1)C(=O)O; Agb = N=C(N)NCC[C@H](N)C(=O)O; Nle = CCCC[C@H](N)C(=O)O; Orn = NCCC[C@H](N)C(=O)O; Aze = O=C(O)[C@@H]1CCN1; Dap = NC[C@H](N)C(=O)O
readout-name: pIC50

- compound: "CC(=O)N[C@@H](Cc1ccccc1)C(=O)N[C@@H](CCNC(=N)N)C(=O)N1CCC[C@H]1C(=O)N[C@H](CC1CCCCC1)C(=O)N[C@@H](Cc1csc2ccccc12)C(=O)N[C@@H](Cc1ccccc1)C(N)=O [Compound 231, Ac-Phe-L22-Pro-cha-Bta-Phe-NH2] (Ac-F[Agb]P[dCha][Bta]F-NH2)"
  observed: "7.70 to 8.00"
- compound: "CC(=O)N[C@@H](Cc1ccccc1)C(=O)N[C@H]1CSSC[C@@H](C(N)=O)NC(=O)[C@H](Cc2ccccc2)NC(=O)[C@H](Cc2csc3ccccc23)NC(=O)[C@@H](CC2CCCCC2)NC(=O)[C@@H]2CCCN2C1=O [Compound 172, Ac-Phe-[Cys-Pro-cha-Bta-Phe-Cys]-NH2] (Ac-FCP[dCha][Bta]FC-NH2; disulfide 2-7)"
  observed: "6.70 to 7.30"
- compound: "CC(=O)N[C@@H](Cc1ccccc1)C(=O)N[C@H]1CCCNC(=O)[C@H](Cc2ccccc2)NC(=O)[C@H](Cc2csc3ccccc23)NC(=O)[C@@H](CCC(C)C)NC(=O)[C@@H]2C[C@@H](O)CN2C1=O [Compound 177, Ac-Phe-[Orn-Hyp-hle-Bta-Phe]] (Ac-F[Orn][Hyp][d(hLeu)][Bta]F; lactam 2-C)"
  observed: "6.70 to 7.30"
- compound: "CCCC[C@@H]1NC(=O)[C@H](Cc2c[nH]c3ccccc23)NC(=O)[C@@H](CC2CCCCC2)NC(=O)[C@@H]2CCCN2C(=O)[C@@H](NC(=O)[C@H](Cc2ccccc2)NC(=O)CON=CC(O)C(O)C(O)C(O)CO)CCCNC1=O (single isomer, unassigned) [Compound 3]"
  observed: "6.70 to 7.30"
- compound: "CC(=O)N[C@@H](Cc1ccccc1)C(=O)N[C@H]1CCCNC(=O)[C@H](CCCNC(N)=O)NC(=O)[C@H](Cc2c[nH]c3ccccc23)NC(=O)[C@@H](CC2CCCCC2)NC(=O)[C@@H]2CCCN2C1=O [Compound 10, Ac-Phe-[Orn-Pro-cha-Trp-Cit], reference compound]"
  observed: "5.70 to 6.70"
- compound: "CCCC[C@@H]1NC(=O)[C@H](Cc2c[nH]c3ccccc23)NC(=O)[C@@H](CC2CCCCC2)NC(=O)[C@@H]2Cc3ccccc3CN2C(=O)[C@@H](NC(=O)[C@H](Cc2ccccc2)NC(C)=O)CCCNC1=O [Compound 205, Ac-Phe-[Orn-Tic-cha-Trp-Nle]] (Ac-F[Orn][Tic][dCha]W[Nle]; lactam 2-C)"
  observed: "6.70 to 7.30"
- compound: "CC(=O)N[C@@H](Cc1ccccc1)C(=O)N[C@@H](CCCN)C(=O)N1C[C@H](O)C[C@H]1C(=O)N[C@H](CCC(C)C)C(=O)N[C@@H](Cc1csc2ccccc12)C(=O)N[C@@H](Cc1ccccc1)C(N)=O [Compound 244, Ac-Phe-Orn-Hyp-hle-Bta-Phe-NH2] (Ac-F[Orn][Hyp][d(hLeu)][Bta]F-NH2)"
  observed: "6.70 to 7.30"
- compound: "CC(=O)N[C@@H](Cc1ccccc1)C(=O)N[C@@H](CCCN)C(=O)N1CCC[C@H]1C(=O)N[C@H](CC1CCCCC1)C(=O)N[C@@H](Cc1csc2ccccc12)C(=O)N[C@@H](Cc1ccc(C)cc1)C(N)=O [Compound 260, Ac-Phe-Orn-Pro-cha-Bta-Pmf-NH2] (Ac-F[Orn]P[dCha][Bta][Phe(4-Me)]-NH2)"
  observed: "7.30 to 7.70"
- compound: "CC(=O)N[C@@H](Cc1c[nH]cn1)C(=O)N[C@@H](Cc1ccccc1)C(=O)N[C@@H](CCCN)C(=O)N1CC[C@H]1C(=O)N[C@H](CC1CCCCC1)C(=O)N[C@@H](Cc1csc2ccccc12)C(=O)N[C@@H](Cc1ccccc1)C(N)=O [Compound 138, Ac-His-Phe-Orn-Aze-cha-Bta-Phe-NH2] (Ac-HF[Orn][Aze][dCha][Bta]F-NH2)"
  observed: "6.70 to 7.30"
- compound: "N[C@@H](Cc1ccccc1)C(=O)N[C@H]1CCCNC(=O)[C@H](Cc2ccccc2)NC(=O)[C@H](Cc2c[nH]c3ccccc23)NC(=O)[C@@H](CC2CCCCC2)NC(=O)[C@H](CO)NC1=O [Compound 383, H-Phe-[Orn-Ser-cha-Trp-Phe]] (H-F[Orn]S[dCha]WF; lactam 2-C)"
  observed: "7.30 to 7.70"
- compound: "CC(C)CC[C@H]1NC(=O)[C@@H]2CCCN2C(=O)[C@@H](NC(=O)[C@@H](N)Cc2ccccc2)CCCNC(=O)[C@H](Cc2ccccc2)NC(=O)[C@H](Cc2ccc(F)cc2)NC1=O [Compound 380, H-Phe-[Orn-Pro-hle-Pff-Phe]] (H-F[Orn]P[d(hLeu)][Phe(4-F)]F; lactam 2-C)"
  observed: "7.30 to 7.70"
- compound: "CC(=O)N[C@@H](Cc1ccccc1)C(=O)N[C@@H](CN)C(=O)N1CCC[C@H]1C(=O)N[C@H](CC1CCCCC1)C(=O)N[C@@H](Cc1csc2ccccc12)C(=O)N[C@@H](Cc1ccccc1)C(N)=O [Compound 216, Ac-Phe-Dap-Pro-cha-Bta-Phe-NH2] (Ac-F[Dap]P[dCha][Bta]F-NH2)"
  observed: "6.70 to 7.30"
- compound: "CC(=O)N[C@@H](Cc1ccccc1)C(=O)N[C@H]1CCCNC(=O)[C@H](C[S+]([O-])Cc2cccnc2)NC(=O)[C@H](Cc2c[nH]c3ccccc23)NC(=O)[C@@H](CC2CCCCC2)NC(=O)[C@@H]2CCCN2C1=O (stereo partly shown) [compound 16] (Ac-F[Orn]P[dCha]W[X6]; lactam 2-C)"
  observed: "5.70 to 6.70"

====

target: human C5aR(CD88) (Homo sapiens); construct: expressed in transfected cells; host or cells: rat basophilic leukemia cells (RBL); test: Determination of the IC50 value in an enzyme release assay (functional assay, antagonistic activity); format: cell-based; details: antagonistic activity; IC50 group in enzyme release assay, RBL cells expressing human C5aR(CD88); read-out: activity (group)
Positions of bridges follow the written chain, without caps; N, C: chain ends. Non-standard residues stand in square brackets, D forms with d. Residues, ends and D or L forms follow the SMILES beside them. *: point of attachment. Phe(4-F) = N[C@@H](Cc1ccc(F)cc1)C(=O)O; Acetyl(4-pyridyl) = O=C(Cc1ccncc1)*; dCha = N[C@H](CC1CCCCC1)C(=O)O; Nicotinoyl = O=C(c1cccnc1)*; Nle = CCCC[C@H](N)C(=O)O; Orn = NCCC[C@H](N)C(=O)O; tBu = CC(C)(C)*

- compound: "CCCC[C@@H]1NC(=O)[C@H](Cc2c[nH]c3ccccc23)NC(=O)[C@@H](CC2CCCCC2)NC(=O)[C@@H]2CCCN2C(=O)[C@@H](NC(=O)[C@H](Cc2ccccc2)NC(=O)Cc2ccncc2)CCCNC1=O [Compound 325, Fbi-Phe-[Orn-Pro-cha-Trp-Nle]] ({Acetyl(4-pyridyl)}-F[Orn]P[dCha]W[Nle]; lactam 2-C)"
  IC50: "50 to 200 nM"
- compound: "CCCC[C@@H]1NC(=O)[C@H](Cc2c[nH]c3ccccc23)NC(=O)[C@@H](CC2CCCCC2)NC(=O)[C@@H]2CCCN2C(=O)[C@@H](NC(=O)[C@H](Cc2ccccc2)NC(=O)c2cccnc2)CCCNC1=O [Compound 328, Fbn-Phe-[Orn-Pro-cha-Trp-Nle]] (Nicotinoyl-F[Orn]P[dCha]W[Nle]; lactam 2-C)"
  IC50: "10 to 20 nM"
- compound: "CC(=O)N[C@@H](Cc1ccccc1)C(=O)N[C@@H](CCCN)C(=O)N1CCC[C@H]1C(=O)N[C@H](CSC(C)(C)C)C(=O)N[C@@H](Cc1ccc(F)cc1)C(=O)N[C@@H](Cc1ccccc1)C(N)=O [Compound 266, Ac-Phe-Orn-Pro-ctb-Pff-Phe-NH2] (Ac-F[Orn]P[dC](tBu)[Phe(4-F)]F-NH2)"
  IC50: "20 to 50 nM"
